meta.source: patent US20250270198A1

target: hERG channel (Homo sapiens (Human), UniProt Q12809); assay: hERG activity, automated patch clamp (SyncroPatch); type: cell-based; details: CHO-K1 cells stably expressing hERG; tail current at −50 mV; compounds at 50 μM and 100 μM; Table 5
Sequence (Q12809 whole entry): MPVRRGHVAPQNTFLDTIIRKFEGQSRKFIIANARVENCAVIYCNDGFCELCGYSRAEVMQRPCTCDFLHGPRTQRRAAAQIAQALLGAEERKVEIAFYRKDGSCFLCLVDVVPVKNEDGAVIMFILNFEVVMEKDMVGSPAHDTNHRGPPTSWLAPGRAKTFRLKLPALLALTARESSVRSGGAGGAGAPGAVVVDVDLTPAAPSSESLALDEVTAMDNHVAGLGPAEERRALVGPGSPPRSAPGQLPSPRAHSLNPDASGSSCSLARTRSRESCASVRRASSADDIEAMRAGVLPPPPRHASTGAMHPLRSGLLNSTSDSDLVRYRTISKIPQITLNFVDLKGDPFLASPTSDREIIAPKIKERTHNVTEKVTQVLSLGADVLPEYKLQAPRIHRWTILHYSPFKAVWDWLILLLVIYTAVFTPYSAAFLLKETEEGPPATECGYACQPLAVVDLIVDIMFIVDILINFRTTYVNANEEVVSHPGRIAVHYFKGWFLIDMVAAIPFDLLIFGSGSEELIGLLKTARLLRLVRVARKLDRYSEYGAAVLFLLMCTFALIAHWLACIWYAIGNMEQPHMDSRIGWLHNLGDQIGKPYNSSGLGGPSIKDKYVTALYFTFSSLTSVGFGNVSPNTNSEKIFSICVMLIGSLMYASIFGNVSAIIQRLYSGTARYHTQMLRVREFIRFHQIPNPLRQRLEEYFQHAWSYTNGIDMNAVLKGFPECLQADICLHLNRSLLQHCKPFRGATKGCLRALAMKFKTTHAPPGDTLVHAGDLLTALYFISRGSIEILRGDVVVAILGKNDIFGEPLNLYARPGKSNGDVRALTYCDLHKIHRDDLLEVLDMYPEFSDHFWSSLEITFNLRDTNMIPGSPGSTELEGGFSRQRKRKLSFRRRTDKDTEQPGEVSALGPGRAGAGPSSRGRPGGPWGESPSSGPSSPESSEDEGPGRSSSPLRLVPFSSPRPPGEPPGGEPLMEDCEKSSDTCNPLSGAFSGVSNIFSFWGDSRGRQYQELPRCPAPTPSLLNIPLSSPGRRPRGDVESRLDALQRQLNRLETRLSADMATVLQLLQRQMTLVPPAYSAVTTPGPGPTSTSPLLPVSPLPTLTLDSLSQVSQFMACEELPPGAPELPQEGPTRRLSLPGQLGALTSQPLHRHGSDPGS
So I've got a bunch of compounds here, and I need their IC50 values.

Example entries and their recorded answers appear below.
smilesText | observed
Cc1c(-c2cn[nH]c2)ncn(Cc2nc(C[C@H](O)c3ccc(Cl)cc3)no2)c1=O | < 50 µM
N#Cc1ncn(Cc2nc(C[C@H](O)c3ccc(Cl)cc3)no2)c(=O)c1Cl | < 50 µM
Nc1ncc(Cl)c(=O)n1Cc1nc(C[C@H](O)c2ccc(Cl)cc2)no1 | > 50 µM
Cc1c(Cl)ncn(Cc2nc(C[C@H](O)c3ccc(Cl)cc3)no2)c1=O | > 50 µM
O=c1c(Br)c(Cl)ncn1Cc1nc(C[C@H](O)c2ccc(Cl)cc2)no1 | < 50 µM

Please supply IC50 for each of the following items, keeping them in order.
1. COc1ncn(Cc2nc(C[C@H](O)c3ccc(Cl)cc3)no2)c(=O)c1Cl
2. Nc1c(Cl)ncn(Cc2nc(C[C@H](O)c3ccc(Cl)cc3)no2)c1=O
3. O=c1c(Cl)cnc(CO)n1Cc1nc(C[C@H](O)c2ccc(Cl)cc2)no1
4. O=c1c(Cl)c(CO)ncn1Cc1nc(C[C@H](O)c2ccc(Cl)cc2)no1

[reply]
1. > 50 µM
2. > 50 µM
3. > 50 µM
4. > 50 µM

---

So I've got a bunch of compounds here, and I need their IC50 values.
biological target: hERG channel (Homo sapiens (Human)); assay: hERG activity, automated patch clamp (SyncroPatch); assay type: cell-based; conditions: CHO-K1 cells stably expressing hERG; tail current at −50 mV; compounds at 50 μM and 100 μM; Table 4

Example entries and their recorded answers appear below.
smilesText | system | IC50
Nc1ccn(Cc2nc(C[C@H](O)c3ccc(Cl)cc3)no2)c(=O)c1Cl | hERG channel (Homo sapiens (Human)) | > 50 µM
O=c1c(Cl)c(CO)ccn1Cc1nc(C[C@H](O)c2ccc(Cl)cc2)no1 | hERG channel (Homo sapiens (Human)) | > 50 µM

Please supply IC50 for each of the following items, keeping them in order.
1. Cc1ncn(Cc2nc(C[C@H](O)c3ccc(Cl)cc3)no2)c(=O)c1Cl
2. Cn1cc(-c2ccn(Cc3nc(C[C@H](O)c4ccc(Cl)cc4)no3)c(=O)c2Cl)cn1
3. Cc1nc(Br)cn(Cc2nc(C[C@H](O)c3ccc(Cl)cc3)no2)c1=O
4. NC(=O)c1cn(Cc2nc(C[C@H](O)c3ccc(Cl)cc3)no2)c(=O)c(Cl)n1
5. Cc1cc(-c2cn[nH]c2)cn(Cc2nc(CCc3ccc(Cl)cc3)no2)c1=O
6. Cc1cc(C(N)=O)cn(Cc2nc(CCc3ccc(Cl)cc3)no2)c1=O
7. Cc1nc(C(N)=O)cn(Cc2nc(C[C@H](O)c3ccc(Cl)cc3)no2)c1=O
8. Cc1c(CN)ncn(Cc2nc(CCc3ccc(Cl)cc3)no2)c1=O

[reply]
> 50 µM
< 50 µM
< 50 µM
> 50 µM
< 50 µM
> 50 µM
> 50 µM
< 50 µM

Please supply IC50 for each of the following items, keeping them in order.
1. O=c1c(Cl)nccn1Cc1nc(C[C@H](O)c2ccc(Cl)cc2)no1
2. NC(=O)c1cc(Cl)c(=O)n(Cc2nc(CCc3ccc(Cl)cc3)no2)c1
3. O=c1c(Cl)c(-c2cn[nH]c2)ncn1Cc1nc(C[C@H](O)c2ccc(Cl)cc2)no1

[reply]
1: < 50 µM; 2: < 50 µM; 3: < 50 µM
